Cited source: patent US20240400708A1

Biological target: feline FcRn complex (FcRn-α subunit and β-microglobulin), biotin labeled (feline)
Assay: SPR, pH 6
Recorded Kd, one value per entry.
Entry rule: numbers only, all in nM.

Past entries and their recorded results:
Binder	Unit Abbrev	Kd
feline IgG1a S252H/S428M/S434P (antibody, part only; not given: Variable domains, not shown: another chain or arm of the molecule) constant: ASTTAPSVFPLAPSCGTTSGATVALACLVLGYFPEPVTVSWNSGALTSGVHTFPAVLQASGLYSLSSMVTVPSSRWLSDTFTCNVAHPPSNTKVDKTVRKTDHPPGPKPCDCPKCPPPEMLGGPSIFIFPPKPKDTLHISRTPEVTCLVVDLGPDDSDVQITWFVDNTQVYTAKTSPREEQFNSTYRVVSVLPILHQDWLKGKEFKCKVNSKSLPSPIERTISKAKGQPHEPQVYVLPPAQEELSRNKVSVTCLIKSFHPPDIAVEWEITGQPEPENNYRTTPPQLDSDGTYFVYSKLSVDRSHWQRGNTYTCSVMHEALHPHHTQKSLTQSPGK	nM	7.45
feline IgG1a S428D (antibody, part only; not given: Variable domains, not shown: another chain or arm of the molecule) constant: ASTTAPSVFPLAPSCGTTSGATVALACLVLGYFPEPVTVSWNSGALTSGVHTFPAVLQASGLYSLSSMVTVPSSRWLSDTFTCNVAHPPSNTKVDKTVRKTDHPPGPKPCDCPKCPPPEMLGGPSIFIFPPKPKDTLSISRTPEVTCLVVDLGPDDSDVQITWFVDNTQVYTAKTSPREEQFNSTYRVVSVLPILHQDWLKGKEFKCKVNSKSLPSPIERTISKAKGQPHEPQVYVLPPAQEELSRNKVSVTCLIKSFHPPDIAVEWEITGQPEPENNYRTTPPQLDSDGTYFVYSKLSVDRSHWQRGNTYTCSVDHEALHSHHTQKSLTQSPGK	nM	362
feline IgG1a A378W (antibody, part only; not given: Variable domains, not shown: another chain or arm of the molecule; small tags and cut ends) constant: ASTTAPSVFPLAPSCGTTSGATVALACLVLGYFPEPVTVSWNSGALTSGVHTFPAVLQASGLYSLSSMVTVPSSRWLSDTFTCNVAHPPSNTKVDKTVRKTDHPPGPKPCDCPKCPPPEMLGGPSIFIFPPKPKDTLSISRTPEVTCLVVDLGPDDSDVQITWFVDNTQVYTAKTSPREEQFNSTYRVVSVLPILHQDWLKGKEFKCKVNSKSLPSPIERTISKAKGQPHEPQVYVLPPAQEELSRNKVSVTCLIKSFHPPDIWVEWEITGQPEPENNYRTTPPQLDSDGTYFVYSKLSVDRSHWQRGNTYTCSVSHEALHSHHTQKSLTQSPGK	nM	91

Continue with the next binder.
IN: Looking for the measured Kd of feline IgG1a S252Y/Q311W (antibody, part only; not given: Variable domains, not shown: another chain or arm of the molecule) constant: ASTTAPSVFPLAPSCGTTSGATVALACLVLGYFPEPVTVSWNSGALTSGVHTFPAVLQASGLYSLSSMVTVPSSRWLSDTFTCNVAHPPSNTKVDKTVRKTDHPPGPKPCDCPKCPPPEMLGGPSIFIFPPKPKDTLYISRTPEVTCLVVDLGPDDSDVQITWFVDNTQVYTAKTSPREEQFNSTYRVVSVLPILHWDWLKGKEFKCKVNSKSLPSPIERTISKAKGQPHEPQVYVLPPAQEELSRNKVSVTCLIKSFHPPDIAVEWEITGQPEPENNYRTTPPQLDSDGTYFVYSKLSVDRSHWQRGNTYTCSVSHEALHSHHTQKSLTQSPGK , can you help?
OUT: 26.9
